Target: Phosphatidylinositol 4,5-bisphosphate 3-kinase catalytic subunit beta isoform (Homo sapiens, UniProt P42338)
Sequence (P42338 whole entry, canonical isoform): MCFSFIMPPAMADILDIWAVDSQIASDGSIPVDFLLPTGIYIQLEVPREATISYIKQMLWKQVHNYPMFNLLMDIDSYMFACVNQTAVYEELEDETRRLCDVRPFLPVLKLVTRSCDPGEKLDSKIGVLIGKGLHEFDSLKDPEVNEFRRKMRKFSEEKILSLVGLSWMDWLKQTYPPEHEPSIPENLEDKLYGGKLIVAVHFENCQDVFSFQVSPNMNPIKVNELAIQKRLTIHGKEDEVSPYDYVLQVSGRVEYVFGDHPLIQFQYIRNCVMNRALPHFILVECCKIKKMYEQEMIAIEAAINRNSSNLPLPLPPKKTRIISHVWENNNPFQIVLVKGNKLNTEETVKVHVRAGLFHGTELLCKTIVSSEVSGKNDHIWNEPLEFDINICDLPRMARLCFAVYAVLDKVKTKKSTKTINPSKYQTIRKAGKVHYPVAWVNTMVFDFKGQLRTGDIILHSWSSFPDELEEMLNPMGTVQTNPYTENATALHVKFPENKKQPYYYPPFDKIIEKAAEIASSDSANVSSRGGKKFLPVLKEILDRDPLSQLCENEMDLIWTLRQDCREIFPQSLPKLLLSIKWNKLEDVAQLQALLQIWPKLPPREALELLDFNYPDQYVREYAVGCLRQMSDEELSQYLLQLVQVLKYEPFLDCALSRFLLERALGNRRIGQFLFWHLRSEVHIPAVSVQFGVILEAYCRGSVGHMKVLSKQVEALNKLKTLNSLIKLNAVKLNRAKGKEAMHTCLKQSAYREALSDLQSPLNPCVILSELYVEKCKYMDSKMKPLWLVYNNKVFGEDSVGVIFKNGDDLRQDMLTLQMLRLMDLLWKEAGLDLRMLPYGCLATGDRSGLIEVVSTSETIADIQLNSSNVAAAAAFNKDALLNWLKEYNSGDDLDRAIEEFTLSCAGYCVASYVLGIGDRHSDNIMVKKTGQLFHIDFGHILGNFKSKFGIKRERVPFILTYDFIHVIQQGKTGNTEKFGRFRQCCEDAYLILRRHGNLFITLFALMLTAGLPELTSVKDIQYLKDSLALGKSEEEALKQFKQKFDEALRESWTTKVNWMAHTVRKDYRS
Assay: Inhibition of PI3Kbeta (unknown origin) by biochemical Alphascreen assay
pIC50: −log10 of the molar value.
Reported pIC50 by item:
PROPERTY: pIC50

>  <MOLECULE>
C[C@H](Nc1ncnc(N)c1C#N)c1nc2ccc(F)cc2c([S+]([O-])CCO)c1-c1ccccc1 (some centres not stated)

>  <PROPERTY>
pIC50

>  <BOUND_SIGN>
=

>  <MEASURED>
6.80

$$$$
>  <MOLECULE>
CC(Nc1ncnc(N)c1C#N)c1nc2ccc(F)cc2c(N(C)C)c1-c1ccccn1 (racemic)

>  <PROPERTY>
pIC50

>  <BOUND_SIGN>
=

>  <MEASURED>
6.15

$$$$
>  <MOLECULE>
Cc1cccnc1-c1c(-c2ccccn2)c([C@H](C)Nc2ncnc(N)c2C#N)nc2ccc(F)cc12

>  <PROPERTY>
pIC50

>  <BOUND_SIGN>
<

>  <MEASURED>
4.70

$$$$
>  <MOLECULE>
CC(Nc1ncnc(N)c1C#N)c1nc2ccc(F)cc2cc1-c1ccccn1 (racemic)

>  <PROPERTY>
pIC50

>  <BOUND_SIGN>
<

>  <MEASURED>
4.70

$$$$
>  <MOLECULE>
CC(Nc1ncnc(N)c1C#N)c1nc2ccc(F)cc2c(Cl)c1-c1ccccn1 (racemic)

>  <PROPERTY>
pIC50

>  <BOUND_SIGN>
=

>  <MEASURED>
6.64

$$$$
>  <MOLECULE>
CC(Nc1ncnc(N)c1C#N)c1nc2ccc(F)cc2c(C#N)c1-c1ccccn1 (racemic)

>  <PROPERTY>
pIC50

>  <BOUND_SIGN>
=

>  <MEASURED>
6.62

$$$$
>  <MOLECULE>
C[C@H](Nc1ncnc(N)c1C#N)c1nc2ccc(F)cc2c(NCCS(C)(=O)=O)c1-c1ccccc1

>  <PROPERTY>
pIC50

>  <BOUND_SIGN>
=

>  <MEASURED>
6.30

$$$$

###

Molecular target: Phosphatidylinositol 4,5-bisphosphate 3-kinase catalytic subunit delta isoform (Homo sapiens)
Sequence (O00329 whole entry, canonical isoform): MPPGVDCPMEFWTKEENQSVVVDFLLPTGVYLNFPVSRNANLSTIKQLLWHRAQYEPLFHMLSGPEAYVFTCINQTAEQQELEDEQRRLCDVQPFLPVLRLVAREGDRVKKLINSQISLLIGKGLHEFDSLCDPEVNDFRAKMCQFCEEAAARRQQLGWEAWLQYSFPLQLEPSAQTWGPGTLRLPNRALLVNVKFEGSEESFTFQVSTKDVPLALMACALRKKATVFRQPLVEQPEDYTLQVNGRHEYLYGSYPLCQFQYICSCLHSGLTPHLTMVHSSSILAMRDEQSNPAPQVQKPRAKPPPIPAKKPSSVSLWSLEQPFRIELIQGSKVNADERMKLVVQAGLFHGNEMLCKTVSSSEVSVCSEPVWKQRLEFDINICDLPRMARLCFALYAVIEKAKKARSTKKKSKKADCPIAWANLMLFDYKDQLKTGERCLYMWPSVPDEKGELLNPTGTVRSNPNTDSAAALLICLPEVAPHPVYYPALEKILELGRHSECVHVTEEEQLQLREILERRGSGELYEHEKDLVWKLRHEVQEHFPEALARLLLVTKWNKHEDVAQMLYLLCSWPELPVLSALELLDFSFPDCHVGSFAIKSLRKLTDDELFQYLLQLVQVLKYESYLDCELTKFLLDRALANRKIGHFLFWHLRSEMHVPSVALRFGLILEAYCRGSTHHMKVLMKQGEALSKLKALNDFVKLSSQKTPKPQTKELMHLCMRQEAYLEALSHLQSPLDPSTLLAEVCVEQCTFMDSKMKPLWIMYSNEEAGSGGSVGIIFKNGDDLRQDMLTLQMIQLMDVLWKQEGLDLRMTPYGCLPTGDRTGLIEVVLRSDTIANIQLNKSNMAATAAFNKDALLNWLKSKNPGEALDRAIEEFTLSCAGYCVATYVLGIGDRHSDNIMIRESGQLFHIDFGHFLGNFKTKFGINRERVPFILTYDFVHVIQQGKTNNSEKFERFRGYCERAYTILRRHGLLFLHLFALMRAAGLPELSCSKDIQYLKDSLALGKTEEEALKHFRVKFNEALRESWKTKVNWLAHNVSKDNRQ
Assay: Inhibition of PI3Kdelta (unknown origin) assessed as inhibition of AKT phosphorylation by cell-based HTRF assay
Class key for IC50 values: range A = under 1 nM, range B = from 1 nM up to 3 nM, range C = 3 nM and over

>  <MOLECULE>
CC(Nc1ncnc(N)c1C#N)c1nc2ccc(F)cc2c(Cl)c1-c1ccccn1 (racemic)

>  <LABEL_VALUE>
range C

$$$$
>  <MOLECULE>
CC(Nc1ncnc(N)c1C#N)c1nc2ccc(F)cc2c(O)c1-c1ccccc1 (racemic)

>  <LABEL_VALUE>
range B

$$$$
>  <MOLECULE>
COCCNc1c(-c2ccccc2)c([C@H](C)Nc2ncnc(N)c2C#N)nc2ccc(F)cc12

>  <LABEL_VALUE>
range B

$$$$
>  <MOLECULE>
CC(Nc1ncnc(N)c1C#N)c1nc2ccc(F)cc2c(NCCO)c1-c1ccccc1 (racemic)

>  <LABEL_VALUE>
range C

$$$$
>  <MOLECULE>
C[C@H](Nc1ncnc(N)c1C#N)c1nc2ccc(F)cc2c(N2CCOCC2)c1-c1ccccn1

>  <LABEL_VALUE>
range B

$$$$
>  <MOLECULE>
C[C@H](Nc1ncnc(N)c1C#N)c1nc2ccc(F)cc2c(S(C)(=O)=O)c1-c1ccccc1

>  <LABEL_VALUE>
range A

$$$$
>  <MOLECULE>
C[C@H](Nc1ncnc(N)c1C#N)c1nc2ccc(F)cc2c(NCCS(C)(=O)=O)c1-c1ccccc1

>  <LABEL_VALUE>
range A

$$$$
>  <MOLECULE>
CC(Nc1ncnc(N)c1C#N)c1nc2ccc(F)cc2c(N(C)C)c1-c1ccccn1 (racemic)

>  <LABEL_VALUE>
range C

$$$$
>  <MOLECULE>
CC(Nc1ncnc(N)c1C#N)c1nc2ccc(F)cc2c(C#N)c1-c1ccccn1 (racemic)

>  <LABEL_VALUE>
range C

$$$$
>  <MOLECULE>
C[C@H](Nc1ncnc(N)c1C#N)c1nc2ccc(F)cc2c(N2CC(O)C2)c1-c1ccccn1

>  <LABEL_VALUE>
range B

$$$$
>  <MOLECULE>
COCc1c(-c2ccccn2)c([C@H](C)Nc2ncnc(N)c2C#N)nc2ccc(F)cc12

>  <LABEL_VALUE>
range C

$$$$
>  <MOLECULE>
COc1c(-c2ccccc2)c([C@H](C)Nc2ncnc(N)c2C#N)nc2ccc(F)cc12

>  <LABEL_VALUE>
range A

$$$$
